Test system: Wolbachia pipientis
protocol: Anti-Wolbachia Cell-Based Screen
Assay type: functional
Design: scale not given: in the data most compounds retested in dose-response had high values
test settings: 5 µM
The campaign covered roughly 48,000 compounds. About 13,000 (27%) showed an effect of 50% or more. Some of the results follow.
measured property: Percent Effect (%)

INSERT INTO assay_data (compound, experimental_value) VALUES
  ('Cc1noc([C@]23COC[C@H]2CN(S(=O)(=O)N(C)C)C3)n1', -12.17),
  ('CNC(=O)[C@@]12CCO[C@@H]1CCN(S(=O)(=O)c1ccccc1)C2', -56.29),
  ('CCCSc1ccccc1NC(=O)N1CCN(C(=O)c2ccc[nH]2)CC1', -3.563),
  ('O=C(O)CN(C(=O)c1ccccc1)[C@H]1C[C@H]2CCOC[C@H]2C1', 112.1),
  ('Cc1noc([C@@]23CCO[C@@H]2CCN(C(=O)c2ccsc2)C3)n1', 10.18),
  ('O=C(NC1CC1)N(CCc1ccccc1)C1CCOC1 (stereo unspecified)', -8.792),
  ('Cc1cc(-c2cnc(NC3CCCC3)nc2-c2ccoc2)on1', 77.66),
  ('Cc1nc(C)n(CC(C)C(=O)N2CCC(N3CCC(O)CC3)CC2)n1 (stereo unspecified)', -19.51),
  ('Cc1cc(-c2cnc(N3CCCC(C)C3)nc2-c2cccnc2C)on1.Cl (stereo unspecified)', -3.482),
  ('Cc1cc(-c2cnc(NC3CC3)nc2-c2ccoc2)on1', 98.24),
  ('CC(=O)NCC(=O)N(CCc1ccccc1)C1CCOC1 (stereo unspecified)', 3.358);

----------
System: Wolbachia pipientis
protocol: Anti-Wolbachia Cell-Based Screen
Type: functional
Design: scale not given: in the data most compounds retested in dose-response had high values
test settings: 5 µM
The campaign covered roughly 48,000 compounds. About 13,000 (27%) showed an effect of 50% or more. The list shows a part of the results.
Measured Percent Effect of individual entries
measured property: Percent Effect (%)

INSERT INTO assay_data (compound, unit_of_measure, experimental_value) VALUES
  ('COCCc1noc(CNC2CCc3nc(C(C)C)nn3C2)n1 (stereo not given)', '%', -13.08),
  ('Cc1ocnc1C(=O)N1CCC(c2nccn2Cc2ccncc2)CC1', '%', 10.72),
  ('O=C(c1cccnc1)N1CCCC(c2ccnc3nccn23)C1 (stereo not given)', '%', 79.76),
  ('Cc1nnc2n1CCN(Cc1csc(COc3ccccc3)n1)C2', '%', 109.3),
  ('CCc1nnc2n1CCN(Cc1csc(-c3ccsc3)n1)C2', '%', -5.09),
  ('O=C(CCc1ccccc1)NCC1CCN(Cc2ccccc2)CC1', '%', 111.4),
  ('Cc1ccc2cc(CN(C)Cc3ccccn3)c(=O)[nH]c2c1', '%', 3.618),
  ('Cc1nnc2n1CCN(Cc1csc(-c3cnn(C)c3)n1)C2', '%', -23.78),
  ('CCOc1ccc(CNC2CCCN(c3cccnn3)C2)cc1OC (stereo not given)', '%', -5.556),
  ('O=C(CCc1ccccc1)NCC1CCN(Cc2ccsc2)CC1', '%', 3.98),
  ('Cc1ccc(-c2nc(CN3CCn4c(nnc4C4CC4)C3)cs2)o1', '%', 3.918),
  ('CCCc1cc(=O)[nH]c(SCc2ccccn2)n1', '%', 119.2),
  ('CCc1cc(=O)[nH]c(SCc2ccccn2)n1', '%', 161.3),
  ('CN1CC(c2ccccc2)CC12CCN(C(=O)c1ccncc1)CC2 (stereo not given)', '%', -13.44),
  ('Cc1ncoc1C(=O)N1CCCC(C(=O)c2cccc(OC(C)C)c2)C1 (stereo not given)', '%', -0.1018),
  ('Cc1nnc2n1CCN(Cc1csc(-c3ccsc3)n1)C2', '%', 121.4),
  ('Cc1ccc(CNC(=O)N2CCN(S(C)(=O)=O)CC2)n1C', '%', -9),
  ('Cc1ocnc1C(=O)N1CCN(C(=O)CC(C)C)[C@@H]2CS(=O)(=O)C[C@@H]21', '%', -7.127),
  ('CSc1ccccc1C(=O)NCCC(O)c1ccco1 (stereo not given)', '%', -13),
  ('Cc1cc(CSCc2ccccn2)on1', '%', -5.175),
  ('Cc1ccc(CNC2CCc3nc(C(C)C)nn3C2)o1 (stereo not given)', '%', 110.7),
  ('CCC(CC)NC(=O)c1cncc(Br)c1', '%', 15.73),
  ('Cc1ncoc1C(=O)N1C[C@@H]2CN(CC3CC3)CCO[C@@H]2C1', '%', -7.815),
  ('CCc1nnc2n1CCN(Cc1csc(-c3ncccn3)n1)C2', '%', -18.32),
  ('CC(C)(C)c1nccc(N2CCN(C3CCS(=O)(=O)C3)CC2)n1 (stereo not given)', '%', -14.65);

----------
Tested on: Wolbachia pipientis
protocol: Anti-Wolbachia Cell-Based Screen
Type: functional
Design: scale not given: in the data most compounds retested in dose-response had high values
test settings: 5 µM
In all, about 48,000 compounds went through this assay and about 13,000 (27%) showed an effect of 50% or more. Some of the results follow.
measured property: Percent Effect (%)

INSERT INTO assay_data (compound, experimental_value) VALUES
  ('CN(C)CCN1CCO[C@H]2CN(C(=O)c3ccsc3)C[C@H]21.O=C(O)C(F)(F)F.O=C(O)C(F)(F)F', 117.2),
  ('CN(C)CCN1CCO[C@H]2CN(C(=O)C3CCOCC3)C[C@H]21', -13.47),
  ('O=C(O)C(F)(F)F.O=C(c1ccsc1)N1CCO[C@@H]2CN(Cc3cccs3)C[C@@H]2C1', 14.76),
  ('Cc1nc2ccccc2nc1CN1CCn2nc(CCC(=O)O)cc2C1', 11.39),
  ('CCOCC1CN(C(=O)c2cc(C)oc2C)Cc2c1cnn2C.O=C(O)C(F)(F)F (centres undefined)', 4.422),
  ('Cc1oncc1C(=O)N1CC[C@H]2[C@H](C[C@@H](CN(C)C)N2CC2CC2)C1.O=C(O)C(F)(F)F.O=C(O)C(F)(F)F', 105.6),
  ('O=C(O)C(F)(F)F.O=C([C@@H]1CN(Cc2nccs2)C[C@H]2OCC[C@H]21)N1CCOCC1', -26.11),
  ('COc1ncccc1NC(=O)NC(C)(C)c1ncc(C)s1', 4.256),
  ('CCN(C(C)=O)C1CCN(c2nccc(CCC(F)(F)F)n2)C1 (centres undefined)', -1.785);

----------
The following compounds are listed with their measured Percent Effect values.
Tested on: Wolbachia pipientis
protocol: Anti-Wolbachia Cell-Based Screen
Format: functional
Design: scale not given: in the data most compounds retested in dose-response had high values
test settings: 5 µM
Among all 48,000 compounds or so, about 13,000 (27%) showed an effect of 50% or more. Some of the results follow.
measured property: Percent Effect (%)

INSERT INTO results (compound, experimental_value) VALUES
  ('Cc1ccc(N2CCC3(CN(Cc4ccncc4)CCC3(F)F)C2)nn1.O=C(O)C(F)(F)F.O=C(O)C(F)(F)F (stereo not given)', 101.6),
  ('Cc1nc(CN2CCc3cncnc3C2)oc1C', -4.156),
  ('Cc1ccc(CN2CCC(F)(F)C3(CCN(c4cnccn4)C3)C2)o1.O=C(O)C(F)(F)F.O=C(O)C(F)(F)F (stereo not given)', 15.24),
  ('Cc1ccc(N2CCC3(CN(Cc4cccs4)CCC3(F)F)C2)nn1.O=C(O)C(F)(F)F (stereo not given)', 80.15),
  ('CCc1noc(CN(C)C(=O)COc2cc(Cl)cc(Cl)c2)n1', -5.267),
  ('COCc1ncn(Cc2nc(-c3ccco3)oc2C)n1', -24.79),
  ('O=C(O)[C@@H]1CN(Cc2c[nH]c(CC3CCCC3)n2)C[C@H]1c1ccccn1', -9.177),
  ('COCCN(Cc1ccc(F)cc1Cl)C(=O)c1cc[n+]([O-])cc1', -5.927),
  ('COc1ccc(-c2n[nH]cc2CN(C)Cc2nonc2C)c(F)c1', -4.147),
  ('CCc1nc(CN(C)C(=O)CSC)no1', 99.89);

----------
System: Wolbachia pipientis
protocol: Anti-Wolbachia Cell-Based Screen
Format: functional
Parameters: scale not given: in the data most compounds retested in dose-response had high values
test settings: 5 µM
About 13,000 (27%) of roughly 48,000 compounds showed an effect of 50% or more. The list shows a part of the results.
measured property: Percent Effect (%)

INSERT INTO assay_data (compound, target_of_assay, experimental_value) VALUES
  ('CCOCCn1c(=O)[nH]c2cc(C(=O)N(C)CCc3cn[nH]c3)ccc21', 'Wolbachia pipientis', -12.36),
  ('CN(C)CCN1CCOCC2(CCN(Cc3ccc[nH]3)CC2)C1.O=C(O)C(F)(F)F.O=C(O)C(F)(F)F.O=C(O)C(F)(F)F', 'Wolbachia pipientis', -10.04),
  ('Cc1ccccc1CCCN(C)S(C)(=O)=O', 'Wolbachia pipientis', 5.397),
  ('CCc1nc(CN2CCCN(C(=O)c3cn[nH]c3C)CC2)cs1', 'Wolbachia pipientis', 4.84),
  ('COc1ccc(C(C)N2CCC(CNC(C)=O)CC2)cc1Cl (stereo unspecified)', 'Wolbachia pipientis', 4.452),
  ('CCNc1ccnc(N2Cc3cnn(Cc4ccc(F)cc4)c3C2)n1', 'Wolbachia pipientis', -10.41),
  ('COCCn1cc(C(=O)N2CCCC2c2ccc(F)cc2)ccc1=O (stereo unspecified)', 'Wolbachia pipientis', -7.034),
  ('Cn1ncc2c(N3CCN(C(N)=O)CC3)nc(C3CCCC3)nc21', 'Wolbachia pipientis', 2.978),
  ('CCC(C(=O)NCc1ccncc1)N(c1ccccc1)S(C)(=O)=O (stereo unspecified)', 'Wolbachia pipientis', -24.56),
  ('CCC(NCc1ccccc1Cl)c1ccccc1OCC(=O)NC (stereo unspecified)', 'Wolbachia pipientis', -10.16),
  ('N#Cc1cccnc1N1CCCC(CO)(Cc2cccc(Cl)c2)C1 (stereo unspecified)', 'Wolbachia pipientis', -4.475);
